- Tested on: 439559-082-T-J2-PDC spheroid viability;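 note: spheroids exposed to compounds for seven days before readout; 100% = DMSO vehicle control viability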
- PROTOCOL_NOTES: Anticancer human tumor 439559-082-T-J2-PDC patient-derived colon adenocarcinoma cell line growth inhibition [POLQ]
- ASSAY_CONDITIONS: second compound 0.1 µM; first compound 0.0316 µM; stronger effect = lower value; spheroids with HUVEC and MSC
Kindly state viability, T/C for each of the entries shown.
Just the number please, in %, no unit attached.

Query: Would you kindly share the measured viability, T/C for C=CCn1c(=O)c2cnc(Nc3ccc(N4CCN(C)CC4)cc3)nc2n1-c1cccc(C(C)(C)O)n1 + Nc1ccc(C#CCN(C(=O)Cc2ncc(C(F)(F)F)cc2C(F)(F)F)c2ccc(F)cc2)nn1 ?
Reply: 100

Query: Which viability, T/C is listed for COc1ccc([C@@H](O)c2cc(-c3ncnc4cc(N5CCOCC5)ccc34)c(F)cc2Cl)nn1 + Nc1ccc(C#CCN(C(=O)Cc2ncc(C(F)(F)F)cc2C(F)(F)F)c2ccc(F)cc2)nn1 ?
Reply: 102

Query: Please look up its viability, T/C: COc1cc(C2c3cc4c(cc3C(OC3OC5COC(C)OC5C(O)C3O)C3COC(=O)C23)OCO4)cc(OC)c1O (stereo not drawn) + Cc1cccc(N(C)C(=O)C2C(O)CCN2c2nc(C)cc(C(F)(F)F)c2C#N)c1
Reply: 103

Query: Could you share which viability, T/C value was measured for Cn1ncnc1[C@H]1c2n[nH]c(=O)c3cc(F)cc(c23)N[C@@H]1c1ccc(F)cc1 + COC1C(OC(N)=O)C(O)C(Oc2ccc3c(O)c(NC(=O)c4ccc(O)c(CC=C(C)C)c4)c(=O)oc3c2C)OC1(C)C ?
Reply: 99.4

Query: For the compound CCCS(=O)(=O)Nc1ccc(F)c(C(=O)c2c[nH]c3ncc(-c4ccc(Cl)cc4)cc23)c1F + COC1C(OC(N)=O)C(O)C(Oc2ccc3c(O)c(NC(=O)c4ccc(O)c(CC=C(C)C)c4)c(=O)oc3c2C)OC1(C)C , what viability, T/C is on record?
Reply: 108

Query: Any idea what viability, T/C was measured for COc1cccc(OCCCN)c1-c1cc(Nc2cnc(C#N)cn2)n[nH]1 + Cc1cccc(N(C)C(=O)C2C(O)CCN2c2nc(C)cc(C(F)(F)F)c2C#N)c1 ?
Reply: 71.1

Query: Reported viability, T/C, compound CCc1c2c(nc3ccc(O)cc13)-c1cc3c(c(=O)n1C2)COC(=O)[C@]3(O)CC + Cc1cccc(N(C)C(=O)C2C(O)CCN2c2nc(C)cc(C(F)(F)F)c2C#N)c1 : ____
Reply: 74.5

Query: Give its viability, T/C value. Item: CC[C@@]1(O)C(=O)OCc2c1cc1n(c2=O)Cc2cc3c(CN(C)C)c(O)ccc3nc2-1 + Cc1cccc(N(C)C(=O)C2C(O)CCN2c2nc(C)cc(C(F)(F)F)c2C#N)c1
Reply: 97.3

Values were extracted from PubChem BioAssay AID1963841.
